# Test system: NCI-H522 lung
# TEST_NAME: NCI-60 one-dose screen, 48 h (100 = growth as untreated, 0 = no growth, -100 = all killed)
# ASSAY_SETUP: 10 µM unless noted
About 83,000 compounds went through this panel and 20% of them were active in at least one assay; those are over-represented in the sample as a whole.
MEASUREMENT_TYPE: growth (%)
Return type: number; implicit unit %.

Consider the following illustrative entries.
COc1ccccc1N(C(C)=O)C1=C(Cl)C(=O)c2ccccc2C1=O
-78
N=C(N)c1ccc(-c2ccc(-c3ccccc3)s2)cc1
-26.5
O=C(/C=C/c1ccc(Oc2ccc(Br)cc2)cc1)c1ccc(Br)cc1
91.1

May I ask what growth has been recorded for Cc1c2ccncc2c(C)c2c1c1cc(CO)ccc1n2C ?
21.1

Find the recorded growth belonging to CN(C)CCCC1(c2ccc(F)cc2)OCc2cc(-c3cc4ccccc4s3)ccc21 (stereo unspecified) and report it.
-9.87

Recorded growth for NS(=O)(=O)c1ccc(NC(=O)/C(=C\c2ccc(Cl)cc2Cl)NC(=O)c2ccccc2)cc1 , please?
80.3

---

# System: UACC-62 melanoma
# TEST_NAME: NCI-60 one-dose screen, 48 h
# ASSAY_SETUP: 10 µM unless noted
This is part of a sample that, as a whole, favours compounds with a hit. Of some 83,000 tested, about 20% had one in any assay. Active and inactive are the calls of the source. Rule for the calls: active = growth percent below 10; inactive = the rest.
Write down the outcome that applies. Available outcomes: active, inactive

Would you please look over these solved cases?
c1nc2ccc(-c3cc4ccc5[nH]ncc5c4c4c3CCCC4)cc2[nH]1
inactive
Cc1ccc2nc(NC(=O)CSc3nc(-c4ccccc4)c(C#N)c4nnnn34)sc2c1
inactive
C=C1CC[C@@H]2[C@](C)(COC(C)=O)[C@H](OC(C)=O)CC[C@@]2(C)[C@@H]1CC(Nc1ccc(S(=O)(=O)NC(C)=O)cc1)C1=CCOC1=O (stereo partly specified)
active
O=S(=O)(NCCCNc1nccc(-c2c(-c3cccc(F)c3)nc3occn23)n1)c1ccc(F)cc1
inactive
C[n+]1ccc(CCc2c[nH]c3ccccc23)cc1
inactive
CC(C)(C)n1cc(-c2ccnc(NCCCNS(=O)(=O)c3ccc(C(F)(F)F)cc3)c2)c(-c2cccc(F)c2)n1
inactive

// outcome(item) with item = COc1ccc(C#Cc2ccc(=O)oc2-c2cc(OC)c(OC)c(OC)c2)cc1O
inactive

# fetch the recorded call for N=C(N)c1ccc(-c2ccc(-c3cc(Cl)cc(Cl)c3)s2)nc1 here
inactive

Check the results log: what was the call for Cc1ccc(-c2nc(-c3cn(C)c4ncccc34)cs2)cc1 ?
active

// param item: COc1ccc(C(=O)Cn2c(C(=O)c3ccc(Cl)cc3)nc3ccccc32)cc1 ; yields the recorded call
inactive

Outcome logged for CCOC(=O)c1cnc2c(N=Nc3ccc(OC)cc3)c(N)nn2c1N in this assay:
inactive

Could you please tell me the result logged for C[C@@H]1O[C@@H](O[C@@H]2C[C@H](c3ccc4c(c3O)C(=O)C3=C(C4=O)[C@@]4(O)C(=O)C[C@](C)(O)C[C@@]4(O)C=C3)O[C@H](C)[C@H]2O)CC[C@@H]1O[C@H]1C[C@@H](O)[C@H](O)[C@@H](C)O1 in this assay?
inactive

Given CC(C)=CCNc1ncnc2c1ncn2C1OC(CO)C(O)C1O (stereo unspecified) , state the outcome it received in this test.
inactive

State the result this test recorded for CCOC(=O)C(=CNc1cnc(Nc2ccc(N3CCOCC3)cc2)nc1Oc1ccc(OC)cc1)C(=O)OCC .
inactive

Query: recorded result category for Clc1c(Cl)[n+](Cc2ccc3ccccc3c2)cn1Cc1ccc2ccccc2c1 in this test
active

Query: recorded result category for Cc1cccc(Oc2ccc(Nc3ncnc4ccc(NC(=O)CN5CCN(C)CC5)cc34)cc2Cl)c1 in this test
active

// outcome(item) with item = CC1=C2[C@@H](CC1)[C@]1(C)O[C@@](c3ccccc3)(C[C@H]1OC(=O)CO)[C@H]2OC(=O)/C=C/c1ccccc1
inactive

Lab log entry: COc1ccc(C(=S)N2CCN(c3ccc(Cl)cc3)CC2)cc1 — outcome as called in the assay?
inactive

I'd appreciate the recorded outcome for COc1ccc(C2=CC(c3cc(OC)c(OC)c(OC)c3)n3ncnc3N2)cc1 (stereo unspecified) from this test.
inactive

Outcome? CC(=O)OC(c1ccccc1)C1CCOC1=O (stereo unspecified)
inactive

Tell me the assay call for COc1cccc(Nc2ncnc3cc(NC(=O)CCl)ccc23)c1 please.
active

For C=CN(C(=O)N1CCN(c2cc3c(cc2F)c(=O)c(C(=O)O)cn3C2CC2)CC1)c1nc(-c2ccc(OC)cc2)cs1 , what call appears in the results of this test?
inactive

// outcome(item) with item = CCO/C=N/C1=C(C#N)C(c2ccc(F)cc2)c2sc3c(F)cccc3c2O1 (stereo unspecified)
inactive

Tell me the recorded outcome of this test for COc1ccc(C(=O)c2cc3c(N)c(C(=O)Nc4ccccc4)sc3nc2C)cc1 .
inactive

Outcome logged for C=CCC(CCCC)(C(=O)OCC)C(=O)OCC in this assay:
inactive

Just curious, what result did C=CCn1c(SCC(=O)Nc2ccc(/C(C)=N/O)cc2)nnc1-c1cc(-c2ccc(S(N)(=O)=O)cc2)nc2ccccc12 get here?
inactive
